Test: chemical genetic growth profiling, strain panel (AID 1159580);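 note: tested at 20 µM; growth read once vehicle control cultures reached saturation at 30 °C; 1 = growth at the plate median or of vehicle wells; lower values mean less growth of the strain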
Details: S. cerevisiae deletion strains, growth OD, locus YNL248C, strain rpa49, active compounds read low
About 2,000 (36%) of roughly 5,500 compounds were called active. Another 18% or so got no clear call; they are omitted. The list shows a part of the results.
Kindly state normalized growth for each of the entries shown.
Numbers only.

Recorded results for 4 molecules are shown here.
[
  {
    "molecule": "NC(=O)c1ncn(C2O[C@H](CO)[C@@H](O)[C@H]2O)c1N (stereo partly specified)",
    "normalized growth": 1.03
  },
  {
    "molecule": "CNC(=O)Oc1ccc2c(c1)[C@]1(C)CCN(C)[C@@H]1N2C",
    "normalized growth": 0.969
  },
  {
    "molecule": "C=C[C@H]1CN2CC[C@H]1C[C@@H]2[C@H](O)c1ccnc2ccccc12",
    "normalized growth": 0.982
  },
  {
    "molecule": "N[C@H](Cc1cc(I)c(Oc2ccc(O)c(I)c2)c(I)c1)C(=O)O",
    "normalized growth": 0.986
  }
]

Batch lookup, normalized growth per entry.
1. C=C1[C@H]2CC[C@@]3(C)[C@H](c4ccoc4)OC(=O)C[C@]13O[C@H]1C[C@H](O)C(C)(C)[C@H](CC(=O)OC)[C@]12C
2. C=C1C2=CC(=O)O[C@@H](c3ccoc3)[C@]2(C)CCC1[C@@]1(C)C=CC(=O)C(C)(C)[C@@H]1CC(=O)OC (stereo partly specified)
3. C=C1C(C2(C)C=CC(=O)C(C)(C)C2CC(=O)OC)CC[C@@]2(C)[C@H](c3ccoc3)OC(=O)C3OC132 (stereo partly specified)
4. N[C@H](Cc1ccccc1)C(=O)O
5. C=C1C2CC[C@@]3(C)[C@H](c4ccoc4)OC(=O)C[C@]13O[C@H]1CC(O)C(C)(C)C(CC(=O)OC)[C@@]21C (stereo partly specified)
6. CCCCC[C@H](CC(=O)NO)C(=O)N[C@H](C(=O)N1CCC[C@H]1CO)C(C)C

[A]
1: 1.05; 2: 0.966; 3: 0.938; 4: 1; 5: 0.971; 6: 1

[Q] // returns reported normalized growth for input CC1(C)C(O)CC(O)C2(C)C1CC(O)C1(C)C2CCC2(C)C(c3ccoc3)OC(=O)C3OC321 (stereo unspecified)
[A] 0.964

* * *

Kindly state normalized growth for each of the entries shown.
Experiment: chemical genetic growth profiling, strain panel (AID 1159580);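 note: tested at 20 µM; growth read once vehicle control cultures reached saturation at 30 °C; 1 = growth at the plate median or of vehicle wells; lower values mean less growth of the strain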
Conditions: S. cerevisiae deletion strains, growth OD, locus YJL095W, strain BCK1 (second series), active compounds read low
About 2,000 (36%) of roughly 5,500 compounds were called active. Inconclusive results (about 18%) are left out. The list shows a part of the results.
One number for each entry.

Recorded results for 3 molecules are shown here.
[
  {
    "molecule": "C[C@H](CCC(=O)O)[C@H]1CCC2C3C(CC[C@@]21C)[C@@]1(C)CC[C@@H](O)C[C@H]1C[C@H]3O (stereo partly drawn)",
    "assayResult": 1.02
  },
  {
    "molecule": "CC(CN(C)C)CN1c2ccccc2CCc2ccccc21 (stereo not drawn)",
    "assayResult": 0.984
  },
  {
    "molecule": "O=c1cc(-c2ccccc2)oc2cc(O)c(O)cc12",
    "assayResult": 0.972
  }
]

Batch lookup, normalized growth per entry.
1. CNCCCN1c2ccccc2CCc2ccccc21
2. COc1cc(C)c(C(=O)Oc2cc(C)c(C(=O)O)c(O)c2C)c(OC)c1C
3. O=C(O)c1ccccc1C(=O)Nc1ccc(S(=O)(=O)Nc2nccs2)cc1

[A]
1. 1.01
2. 0.988
3. 0.982

Batch lookup, normalized growth per entry.
1. Nc1ccn(C2O[C@H](CO)[C@@H](O)[C@H]2O)c(=O)n1 (stereo partly drawn)
2. CC(=O)Nc1nnc(S(N)(=O)=O)s1

[A]
1: 0.995; 2: 1.01
